The following molecules are shown together with reported remaining activity at 5 µM values.
Molecular target: P2X2R (Homo sapiens, UniProt Q9UBL9)
Construct: expressed in transfected cells; host or cells: HEK-293
Sequence (Q9UBL9 1-471): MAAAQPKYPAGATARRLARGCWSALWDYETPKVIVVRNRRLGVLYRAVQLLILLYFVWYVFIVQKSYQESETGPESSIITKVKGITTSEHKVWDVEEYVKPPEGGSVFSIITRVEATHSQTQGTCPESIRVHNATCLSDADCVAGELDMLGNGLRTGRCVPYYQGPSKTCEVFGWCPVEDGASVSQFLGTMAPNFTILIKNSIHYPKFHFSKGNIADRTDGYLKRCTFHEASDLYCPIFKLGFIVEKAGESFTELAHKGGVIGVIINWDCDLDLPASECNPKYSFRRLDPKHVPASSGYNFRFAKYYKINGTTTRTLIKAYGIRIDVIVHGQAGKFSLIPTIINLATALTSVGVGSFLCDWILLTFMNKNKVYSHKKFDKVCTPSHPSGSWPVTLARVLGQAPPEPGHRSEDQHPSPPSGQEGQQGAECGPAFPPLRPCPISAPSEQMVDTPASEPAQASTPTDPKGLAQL
Experiment: Receptor-mediated calcium entrance assay (Calcium Assay), P2X2R
Assay type: cell-based
Conditions: compound at 5 μM, read-out: Percentage of activity remains in the presence of the compound at 5 μM, P2X2R (Calcium Assay)
Measured endpoint: remaining activity at 5 µM

molecule="NS(=O)(=O)c1ccc(N2CCCC(NC(=O)CCc3ccccc3)C2)cc1 (stereo not drawn) [#53]" measured_endpoint="remaining activity at 5 µM" recorded_value=58%
molecule="O=C(CCc1ccccc1)N1CCN(S(=O)(=O)c2ccc(F)cc2)CC1 [#30]" measured_endpoint="remaining activity at 5 µM" recorded_value=67.5%
molecule="O=C(CCc1ccccc1)N1CCN(S(=O)(=O)c2ccc(NC3CCCCC3)cc2)CC1 [#33]" measured_endpoint="remaining activity at 5 µM" recorded_value=83.6%
molecule="CCCCNc1ccc(S(=O)(=O)N2CCC(C(=O)O)CC2)cc1 [#27]" measured_endpoint="remaining activity at 5 µM" recorded_value=67.2%
molecule="O=C(CCc1ccccc1)NC1CCCN(S(=O)(=O)c2ccc(F)c(Cl)c2)C1 (stereo not drawn) [#43]" measured_endpoint="remaining activity at 5 µM" recorded_value=56%
molecule="CCCCNc1ccc(S(=O)(=O)N2CCCC(NC(=O)CCc3ccccc3)C2)cc1 (stereo not drawn) [#15]" measured_endpoint="remaining activity at 5 µM" recorded_value=80.4%
molecule="O=C(CCc1ccccc1)N1CCN(S(=O)(=O)c2ccc(N3CCCCC3)cc2)CC1 [#34]" measured_endpoint="remaining activity at 5 µM" recorded_value=65.2%
molecule="CC(C)S(=O)(=O)c1ccc(N2CCCC(NC(=O)CCc3ccccc3)C2)cc1 (stereo not drawn) [#7]" measured_endpoint="remaining activity at 5 µM" recorded_value=78.8%
molecule="CC(C)COc1ccc(S(=O)(=O)N2CCCC(NC(=O)CCc3ccccc3)C2)cc1 (stereo not drawn) [#6]" measured_endpoint="remaining activity at 5 µM" recorded_value=55.2%
molecule="CS(=O)(=O)c1ccc(N2CCCC(NC(=O)CCc3ccccc3)C2)cc1 (stereo not drawn) [#1]" measured_endpoint="remaining activity at 5 µM" recorded_value=61.3%
molecule="O=C(CCc1ccccc1)NC1CCCN(S(=O)(=O)c2ccc(-n3cc(Br)cn3)cc2)C1 (stereo not drawn) [#9]" measured_endpoint="remaining activity at 5 µM" recorded_value=61.3%
molecule="CN(C)c1ccc(S(=O)(=O)N2CCCC(NC(=O)CCc3ccccc3)C2)cc1 (stereo not drawn) [#14]" measured_endpoint="remaining activity at 5 µM" recorded_value=72.7%
molecule="CC1CCCCN1c1ccc(S(=O)(=O)N2CCCC(NC(=O)CCc3ccccc3)C2)cc1 (stereo not drawn) [#47]" measured_endpoint="remaining activity at 5 µM" recorded_value=65.6%
molecule="CN1CCN(c2ccc(S(=O)(=O)N3CCCC(NC(=O)CCc4ccccc4)C3)cc2)CC1 (stereo not drawn) [#18]" measured_endpoint="remaining activity at 5 µM" recorded_value=73.1%
molecule="CC(C)(C)OC(=O)N1CCN(c2ccc(S(=O)(=O)N3CCCC(C(=O)NCCc4ccccc4)C3)cc2)CC1 (stereo not drawn) [#36]" measured_endpoint="remaining activity at 5 µM" recorded_value=49.4%
molecule="O=C(CCc1ccccc1)NC1CCCN(c2ccc(S(=O)(=O)NCc3ccco3)cc2)C1 (stereo not drawn) [#52]" measured_endpoint="remaining activity at 5 µM" recorded_value=72.3%
molecule="O=C(CCc1ccccc1)NC1CCCN(S(=O)(=O)c2ccc(N3CCC(F)(F)CC3)cc2)C1 (stereo not drawn) [#46]" measured_endpoint="remaining activity at 5 µM" recorded_value=71%
molecule="O=C(NCCc1ccccc1)C1CCN(S(=O)(=O)c2ccc(N3CCCC3)cc2)CC1 [#21]" measured_endpoint="remaining activity at 5 µM" recorded_value=94.3%
molecule="CC(C)N(C(C)C)S(=O)(=O)c1ccc(N2CCCC(NC(=O)CCc3ccccc3)C2)cc1 (stereo not drawn) [#49]" measured_endpoint="remaining activity at 5 µM" recorded_value=82.6%
molecule="O=C(CCc1ccccc1)N1CCN(S(=O)(=O)c2ccc(N3CCCC3)cc2)CC1 [#35]" measured_endpoint="remaining activity at 5 µM" recorded_value=43.7%
molecule="O=S(=O)(c1ccccc1)C1CN(S(=O)(=O)c2ccc(N3CCCCC3)cc2)C1 [#10]" measured_endpoint="remaining activity at 5 µM" recorded_value=69.3%
